- assay method text: chemical genetic growth profiling, strain panel (AID 1159580);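 also: tested at 20 µM; growth read once vehicle control cultures reached saturation at 30 °C; 1 = growth at the plate median or of vehicle wells; lower values mean less growth of the strain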
- assay context: S. cerevisiae deletion strains, growth OD, locus YDR297W, strain sur2
Screen size: about 5,500 compounds; about 2,000 (36%) were called active. Another 18% or so got no clear call; they are omitted. Rule as the data show it: active = normalized growth mostly below about 0.91 (no sharp cut-off); inconclusive = no clear call, values can overlap the other calls; inactive = mostly above about 0.92. Some of the results follow.
In this exercise, the only acceptable responses are active, inactive

compound	discrete label
CCN(CC)CCNC(=O)c1cc(Br)c(N)cc1OC	inactive

[in] Assay outcome for CC1CC2C3CCC4=CC(=O)C=C[C@]4(C)[C@@]3(F)[C@@H](O)C[C@]2(C)[C@@]1(O)C(=O)CO (stereo partly specified) : what was it?
[out] inactive

[in] Each compound tested received a call. Report the one for COc1cc(O)c(C(=O)/C=C/c2ccc(OC)c(O)c2)c(OC)c1 .
[out] inactive

[in] Fill in: this test's call for CN1CCC(=C2c3ccccc3CCc3sccc32)CC1 is ___
[out] inactive

[in] Could you check what this test reported for CC1(C)OC(=O)NC1=O ?
[out] inactive

[in] # lookup: test call for CCCCCCCCNC(C)C(O)c1ccc(SC(C)C)cc1 (stereo unspecified)
[out] active

[in] Per the assay record, what outcome was assigned to CC(CCc1ccccc1)NC(C)C(O)c1ccc(O)cc1 (stereo unspecified) ?
[out] inactive

[in] Dear all, I need the recorded test outcome for COc1ccc2c3c1O[C@H]1C[C@@H](O)C=C[C@@]31CCN(C)C2 , thank you.
[out] inactive

[in] # fetch the recorded call for CN1CCC(=C2c3ccccc3Sc3ccccc32)CC1 here
[out] inactive

[in] What is the recorded call for this compound in the test? CN1CCC(=C2c3ccccc3CC(=O)c3sccc32)CC1
[out] inactive

[in] Status in this test for COC1=CC(=O)C[C@@H](C)[C@]12Oc1c(Cl)c(OC)cc(OC)c1C2=O ?
[out] inactive

====

The entries below come with measured normalized growth values attached.
- assay method text: chemical genetic growth profiling, strain panel (AID 1159580);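 also: tested at 20 µM; growth read once vehicle control cultures reached saturation at 30 °C; 1 = growth at the plate median or of vehicle wells; lower values mean less growth of the strain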
- assay context: S. cerevisiae deletion strains, growth OD, locus YHR129C, strain ARP1, hits give low values
About 2,000 (36%) of roughly 5,500 compounds were called active. About 18% were inconclusive and are not listed. The list shows a part of the results.

Worked set:
compound	measured quantity	val
C=C1C([C@]2(C)C(CC(=O)OC)[C@@](C)(COC(C)=O)OC(=O)C[C@@H]2OC(C)=O)[C@@H](OC=O)[C@H](OC(=O)C(OC(C)=O)C(C)CC)[C@@]2(C)[C@H](c3ccoc3)CC(=O)C12O (stereo partly drawn)	normalized growth	1.02 (inactive)
CC(Oc1ccccc1)C(=O)N[C@@H]1C(=O)N2[C@@H]1SC(C)(C)[C@@H]2C(=O)O (stereo partly drawn)	normalized growth	1.01 (inactive)

[in] Supply normalized growth value. Item: C=C1C([C@]2(C)C(CC(=O)OC)[C@@](C)(COC(C)=O)OC(=O)C[C@@H]2OC(C)=O)[C@@H](OC=O)[C@H](OC(=O)C(O)C(C)CC)[C@@]2(C)[C@H](c3ccoc3)CC(=O)C12O (stereo partly drawn)
[out] 1.01 (inactive)

====

- assay method text: chemical genetic growth profiling, strain panel (AID 1159580);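 also: tested at 20 µM; growth read once vehicle control cultures reached saturation at 30 °C; 1 = growth at the plate median or of vehicle wells; lower values mean less growth of the strain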
- assay context: S. cerevisiae deletion strains, growth OD, locus YIL066C, strain RNR3, hits give low values
The whole screen tested about 5,500 compounds, of which about 2,000 (36%) were called active. Another 18% or so got no clear call; they are omitted. Some of the results follow.
Recorded normalized growth for the following compounds
In your answer, state the number alone without any accompanying words.

compound	normalized growth
CCS(=O)CCSP(=O)(OC)OC (stereo not given)	1.03
COc1cc2c(cc1OC)[C@@H]1C(=O)c3ccc4c(c3O[C@@H]1CO2)C=CC(C)(C)O4	0.964

[in] Answer with the recorded normalized growth for the compound listed here: COc1cc2c(cc1OC)C1C(=O)c3c(cc4c(c3O)C=CC(C)(C)O4)OC1CO2 (stereo not given)
[out] 1

[in] State its normalized growth: COc1cc2c(cc1OC)[C@@H]1C(=O)c3ccc4oc(C(C)C)cc4c3O[C@@H]1CO2
[out] 1.02

[in] Quote normalized growth reported for COc1cc2c(cc1OC)[C@@H]1C(=O)c3ccc(O)c(CC=C(C)C)c3O[C@@H]1CO2 please.
[out] 0.981
